- System: biotinyl-Met-oxazolone
- assay method text: self-aminoacylation, catalytic enhancement (BMO) (fold over background); higher = more active; k-Seq, kA / k0A0; sequences stand for … in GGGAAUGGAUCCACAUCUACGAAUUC…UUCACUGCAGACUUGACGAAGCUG
Fewer inactive variants are shown than the library holds.
Reported self-aminoacylation is given for each of the following sequences.
// print number alone

Some sequences with known self-aminoacylation results, for comparison:
>>> df
                             query_sequence  numeric_readout
0  AAAUUUGCUAAUAGUCGCGAG [Fam3.1 aminoacylation ribozyme variant]             2.44
1  CCACACUUCAACCAAUCAGUC [Fam1B.1 aminoacylation ribozyme variant]            0.804
2  AUUCACCUAGUUCAUCGGGUC [Fam2.2 aminoacylation ribozyme variant]            0.906
3  GUACACCUAGGUCAUCGGGUG [Fam2.2 aminoacylation ribozyme variant]             2.32

Please look up its self-aminoacylation: AUUCGCCUAGGUCAUCCGGUG [Fam2.2 aminoacylation ribozyme variant] 7.99

Same lookup for AUUCACAUAGGGCAUCGGGUG [Fam2.2 aminoacylation ribozyme variant] , please. 4.4

Same lookup for AUUACCCUCGUAAUCGAGUGA [Fam2.1 aminoacylation ribozyme variant] , please. 16

Same lookup for AACUUAGCUAAUAGUCGCAAG [Fam3.1 aminoacylation ribozyme variant] , please. 2.42
